# Test Target: CB1R (Rattus norvegicus, UniProt P20272)
# Construct: Crude membrane fractions were prepared from the brain
# Sequence (P20272 whole entry): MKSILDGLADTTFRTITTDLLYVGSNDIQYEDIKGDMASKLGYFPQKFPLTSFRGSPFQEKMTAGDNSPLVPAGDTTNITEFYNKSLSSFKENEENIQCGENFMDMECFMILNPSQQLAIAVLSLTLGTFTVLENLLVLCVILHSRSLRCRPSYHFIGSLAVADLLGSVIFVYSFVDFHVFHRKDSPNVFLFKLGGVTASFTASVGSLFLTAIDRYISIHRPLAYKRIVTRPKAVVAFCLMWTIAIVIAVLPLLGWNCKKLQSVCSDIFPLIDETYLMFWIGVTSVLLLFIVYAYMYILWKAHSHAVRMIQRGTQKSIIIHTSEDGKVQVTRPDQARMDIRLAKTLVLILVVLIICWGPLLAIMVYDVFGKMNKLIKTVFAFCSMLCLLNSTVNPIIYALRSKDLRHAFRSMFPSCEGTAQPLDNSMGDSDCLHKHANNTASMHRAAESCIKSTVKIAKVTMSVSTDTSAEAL
# Assay Text: [3H]WIN55,212-2 radioligand competition binding assay in rat brain membrane homogenate
# Details: read-out: Ki [3H]WIN55,212-2 binding, 5 nM [3H]WIN55,212-2, ± SEM, n.b. = no binding of ligands was observed
Endpoint Label: log10 of Ki (log10 of the value in nM)

Compound | log10 of Ki
CNC(=O)[C@@H](NC(=O)c1cc(-n2cccc2)n(-c2ccccc2)n1)C(C)C [Compound 35, RS2708-Val-NHCH3] | 3.90
COC(=O)[C@@H](NC(=O)c1nn(-c2ccc(Cl)cc2)c(-n2cccc2)c1C)C(C)(C)C [Compound 24, RS2691-tLeu-OCH3] | 1.23
COC(=O)[C@@H](NC(=O)c1nn(-c2ccc(Cl)cc2)c(-n2cccc2)c1C)C(C)C [Compound 23, RS2691-Val-OCH3] | 1.74
CNC(=O)[C@@H](NC(=O)c1nn(-c2ccccc2)c(-n2cccc2)c1C)C(C)(C)C [Compound 38, RS2709-tLeu-NHCH3] | 1.62
CNC(=O)[C@@H](NC(=O)c1nn(-c2ccccc2)c(-n2cccc2)c1C)C(C)C [Compound 37, RS2709-Val-NHCH3] | 3.03
COC(=O)[C@@H](NC(=O)c1cc(-n2cccc2)n(-c2ccccc2)n1)C(C)(C)C [Compound 26, RS2708-tLeu-OCH3] | 2.45
COC(=O)[C@@H](NC(=O)c1cc(-n2cccc2)n(-c2ccccc2)n1)C(C)C [Compound 25, RS2708-Val-OCH3] | 3.13

---

# Test Target: CB1R (Rattus norvegicus, UniProt P20272)
# Construct: Crude membrane fractions were prepared from the brain
# Assay Text: Ligand stimulated [35S]GTPγS binding assay in rat brain membranes
# Details: rat brain membranes; ± SEM; read-out: [35S]GTPγS stimulation EC50
Endpoint Label: EC50 (µM)

Structure Smiles String | Test Result
COC(=O)[C@@H](NC(=O)c1cc(-n2cccc2)n(-c2ccc(Cl)cc2)n1)C(C)(C)C | 4.96
CC(C)(C)[C@H](NC(=O)c1cc(-n2cccc2)n(-c2ccc(Cl)cc2)n1)C(=O)O | 0.712
CNC(=O)[C@@H](NC(=O)c1nn(-c2ccc(Cl)cc2Cl)c(-n2cccc2Cl)c1C)C(C)C | 3.54

---

# Test Target: CB1R (Rattus norvegicus, UniProt P20272)
# Construct: Crude membrane fractions were prepared from the brain; from tissue; host or cells: Wistar rat whole brain, crude membrane fraction
# Assay Text: Ligand stimulated [35S]GTPγS binding assay in rat brain membranes
# Assay type: biochemical
# Details: from [35S]GTPγS binding, rat brain membranes
Endpoint Label: CB1R functional profile (agonist / antagonist / inverse agonist)

Structure Smiles String | Test Result
COC(=O)[C@@H](NC(=O)c1cc(-n2cccc2)n(-c2ccccc2)n1)C(C)(C)C | inverse agonists
CNC(=O)[C@@H](NC(=O)c1nn(-c2ccccc2)c(-n2cccc2)c1C)C(C)C | weak inverse agonist
COC(=O)[C@@H](NC(=O)c1cc(-n2cccc2)n(-c2ccc(Cl)cc2)n1)C(C)C | inverse agonists
CNC(=O)[C@@H](NC(=O)c1cc(-n2cccc2)n(-c2ccc(Cl)cc2)n1)C(C)C | weak inverse agonist
COC(=O)[C@@H](NC(=O)c1nn(-c2ccc(Cl)cc2Cl)c(-n2cccc2Cl)c1C)C(C)C | inverse agonists

---

# Test Target: CB1R (Rattus norvegicus)
# Construct: Crude membrane fractions were prepared from the brain; from tissue; host or cells: Wistar rat whole brain, crude membrane fraction
# Assay Text: [3H]WIN55,212-2 radioligand competition binding assay in rat brain membrane homogenate
# Details: 5 nM [3H]WIN55,212-2, ± SEM, n.b. = no binding of ligands was observed

Structure Smiles String | Ki [3H]WIN55,212-2 binding
Cc1c(C(=O)N[C@H](C(=O)O)C(C)C)nn(-c2ccc(Cl)cc2)c1-n1cccc1 | n.b.
CC(C)(C)[C@H](NC(=O)c1cc(-n2cccc2)n(-c2ccccc2)n1)C(=O)O | n.b.
CNC(=O)[C@@H](NC(=O)c1cc(-n2cccc2)n(-c2ccc(Cl)cc2)n1)C(C)C | modest affinity
Cc1c(C(=O)N[C@H](C(=O)O)C(C)(C)C)nn(-c2ccc(Cl)cc2Cl)c1-n1cccc1Cl | n.b.
CNC(=O)[C@@H](NC(=O)c1nn(-c2ccc(Cl)cc2Cl)c(-n2cccc2Cl)c1C)C(C)C | modest affinity
CNC(=O)[C@@H](NC(=O)c1cc(-n2cccc2)n(-c2ccccc2)n1)C(C)C | modest affinity
CC(C)[C@H](NC(=O)c1cc(-n2cccc2)n(-c2ccccc2)n1)C(=O)O | n.b.
CC(C)(C)[C@H](NC(=O)c1cc(-n2cccc2)n(-c2ccc(Cl)cc2)n1)C(=O)O | n.b.
Cc1c(C(=O)N[C@H](C(=O)O)C(C)(C)C)nn(-c2ccccc2)c1-n1cccc1 | n.b.
Cc1c(C(=O)N[C@H](C(=O)O)C(C)C)nn(-c2ccc(Cl)cc2Cl)c1-n1cccc1Cl | n.b.
CNC(=O)[C@@H](NC(=O)c1nn(-c2ccc(Cl)cc2Cl)c(-n2cccc2Cl)c1C)C(C)(C)C | n.b.
CC(C)[C@H](NC(=O)c1cc(-n2cccc2)n(-c2ccccc2)n1)C(N)=O | n.b.
Cc1c(C(=O)N[C@H](C(=O)O)C(C)C)nn(-c2ccccc2)c1-n1cccc1 | n.b.
CNC(=O)[C@@H](NC(=O)c1nn(-c2ccccc2)c(-n2cccc2)c1C)C(C)C | modest affinity
CC(C)[C@H](NC(=O)c1cc(-n2cccc2)n(-c2ccc(Cl)cc2)n1)C(=O)O | n.b.

---

# Test Target: CB1R (Rattus norvegicus, UniProt P20272)
# Construct: Crude membrane fractions were prepared from the brain; from tissue; host or cells: Wistar rat whole brain, crude membrane fraction
# Assay Text: Ligand stimulated [35S]GTPγS binding assay in rat brain membranes
# Assay type: biochemical
# Details: from [35S]GTPγS binding, rat brain membranes
Endpoint Label: CB1R functional profile (agonist / antagonist / inverse agonist)

Structure Smiles String | Test Result
CNC(=O)[C@@H](NC(=O)c1nn(-c2ccccc2)c(-n2cccc2)c1C)C(C)(C)C | antagonists
CNC(=O)[C@@H](NC(=O)c1nn(-c2ccc(Cl)cc2)c(-n2cccc2)c1C)C(C)C | antagonists
CNC(=O)[C@@H](NC(=O)c1cc(-n2cccc2)n(-c2ccccc2)n1)C(C)C | weak inverse agonist
CNC(=O)[C@@H](NC(=O)c1cc(-n2cccc2)n(-c2ccccc2)n1)C(C)(C)C | antagonists
CNC(=O)[C@@H](NC(=O)c1nn(-c2ccc(Cl)cc2Cl)c(-n2cccc2Cl)c1C)C(C)C | weak inverse agonist

---

Entries and their measured pEC50 follow.
# Test Target: CB1R (Rattus norvegicus)
# Construct: Crude membrane fractions were prepared from the brain; from tissue; host or cells: Wistar rat whole brain, crude membrane fraction
# Assay Text: Ligand stimulated [35S]GTPγS binding assay in rat brain membranes
# Assay type: biochemical
# Details: rat brain membranes; ± SEM; read-out: [35S]GTPγS stimulation EC50
pEC50: −log10 of the molar value.
Endpoint Label: pEC50

Structure Smiles String | Endpoint Label | Inequality Symbol | Test Result
CC(C)(C)[C@H](NC(=O)c1cc(-n2cccc2)n(-c2ccccc2)n1)C(N)=O | pEC50 | = | 6.53
CC(C)(C)[C@H](NC(=O)c1cc(-n2cccc2)n(-c2ccccc2)n1)C(=O)O | pEC50 | = | 5.61
Cc1c(C(=O)N[C@H](C(=O)O)C(C)(C)C)nn(-c2ccc(Cl)cc2Cl)c1-n1cccc1Cl | pEC50 | = | 5.78
Cc1c(C(=O)N[C@H](C(=O)O)C(C)C)nn(-c2ccc(Cl)cc2)c1-n1cccc1 | pEC50 | < | 5.00
Cc1c(C(=O)N[C@H](C(N)=O)C(C)C)nn(-c2ccccc2)c1-n1cccc1 | pEC50 | = | 5.37
CC(C)[C@H](NC(=O)c1cc(-n2cccc2)n(-c2ccccc2)n1)C(=O)O | pEC50 | = | 5.78
COC(=O)[C@@H](NC(=O)c1nn(-c2ccc(Cl)cc2Cl)c(-n2cccc2Cl)c1C)C(C)(C)C | pEC50 | = | 5.36
CNC(=O)[C@@H](NC(=O)c1cc(-n2cccc2)n(-c2ccc(Cl)cc2)n1)C(C)(C)C | pEC50 | = | 6.41
COC(=O)[C@@H](NC(=O)c1nn(-c2ccccc2)c(-n2cccc2)c1C)C(C)C | pEC50 | = | 5.68
COC(=O)[C@@H](NC(=O)c1cc(-n2cccc2)n(-c2ccc(Cl)cc2)n1)C(C)C | pEC50 | = | 5.87
Cc1c(C(=O)N[C@H](C(N)=O)C(C)(C)C)nn(-c2ccccc2)c1-n1cccc1 | pEC50 | = | 5.48
CC(C)[C@H](NC(=O)c1cc(-n2cccc2)n(-c2ccc(Cl)cc2)n1)C(=O)O | pEC50 | = | 5.23
COC(=O)[C@@H](NC(=O)c1cc(-n2cccc2)n(-c2ccccc2)n1)C(C)C | pEC50 | = | 6.33
CNC(=O)[C@@H](NC(=O)c1cc(-n2cccc2)n(-c2ccc(Cl)cc2)n1)C(C)C | pEC50 | = | 6.22
CNC(=O)[C@@H](NC(=O)c1nn(-c2ccccc2)c(-n2cccc2)c1C)C(C)C | pEC50 | = | 5.15
Cc1c(C(=O)N[C@H](C(=O)O)C(C)(C)C)nn(-c2ccccc2)c1-n1cccc1 | pEC50 | = | 5.47
COC(=O)[C@@H](NC(=O)c1nn(-c2ccc(Cl)cc2)c(-n2cccc2)c1C)C(C)C | pEC50 | = | 5.31
CC(C)[C@H](NC(=O)c1cc(-n2cccc2)n(-c2ccccc2)n1)C(N)=O | pEC50 | = | 5.91

Data origin, for the record: paper PMC10108392
